The measurements presented in this section are drawn from patent US11492335B2.

- Experimental System: recombinant human VAP-1 (Homo sapiens, UniProt Q16853)
- Construct: purchased R&D systems
- Sequence (Q16853 whole entry): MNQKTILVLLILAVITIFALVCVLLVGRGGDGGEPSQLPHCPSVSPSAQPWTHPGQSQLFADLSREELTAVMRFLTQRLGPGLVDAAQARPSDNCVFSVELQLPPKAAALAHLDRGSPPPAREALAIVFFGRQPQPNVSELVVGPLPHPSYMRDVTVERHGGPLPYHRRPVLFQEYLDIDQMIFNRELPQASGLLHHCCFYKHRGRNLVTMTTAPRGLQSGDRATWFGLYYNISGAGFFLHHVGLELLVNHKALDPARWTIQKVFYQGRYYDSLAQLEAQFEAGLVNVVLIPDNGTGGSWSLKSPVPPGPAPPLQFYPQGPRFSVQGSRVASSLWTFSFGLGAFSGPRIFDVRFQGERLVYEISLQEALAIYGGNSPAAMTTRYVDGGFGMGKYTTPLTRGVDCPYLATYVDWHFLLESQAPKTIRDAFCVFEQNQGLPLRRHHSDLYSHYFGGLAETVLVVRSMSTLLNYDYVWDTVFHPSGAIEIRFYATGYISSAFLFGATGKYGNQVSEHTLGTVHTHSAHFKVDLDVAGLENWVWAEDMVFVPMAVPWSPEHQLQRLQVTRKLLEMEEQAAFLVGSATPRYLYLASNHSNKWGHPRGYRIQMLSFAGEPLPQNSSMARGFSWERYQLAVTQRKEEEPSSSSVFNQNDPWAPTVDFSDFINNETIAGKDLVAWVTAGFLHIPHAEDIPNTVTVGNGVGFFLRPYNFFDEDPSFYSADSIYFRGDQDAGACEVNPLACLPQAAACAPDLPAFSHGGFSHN
- Test: Activity on recombinant human VAP-1, Amplex Red HRP-coupled hydrogen peroxide assay, benzylamine substrate
- Format: biochemical
- Condition: recombinant human VAP-1, benzylamine substrate; read-out: Inhibitory Activity (IC50, nM) human VAP-1
Where a name gives a salt, the structure may show the parent alone.
Experimental Readout: IC50 (nM)

Answered examples (5):
| Compound | Value Unit | Experimental Result |
| --- | --- | --- |
| Cc1cc(-c2ccc3cn[nH]c3c2)cnc1-n1cnn(C/C(=C/F)CN)c1=O [Example 153] | nM | 0.39 |
| NC/C(=C\F)Cn1ncn(-c2cccc(-c3ccc4c(c3)OCCO4)n2)c1=O [Example 194] | nM | 1.2 |
| Cc1ccc(-c2cccc(-c3noc(C4CC4)n3)c2)nc1-n1cnn(C/C(=C/F)CN)c1=O [Example 210, hydrochloride] | nM | 52 |
| NC/C(=C\F)Cn1ncn(-c2cc(-c3ccc4nonc4c3)ccn2)c1=O [Example 172] | nM | 0.67 |
| Cc1cc(-c2cccc(-n3cnn(C/C(=C/F)CN)c3=O)n2)cc2c1NC(=O)CC2 [Example 197, hydrochloride] | nM | 0.08 |

(A) CC(=O)Nc1cc(-c2cnc(-n3cnn(C/C(=C/F)CN)c3=O)s2)ccn1 [Example 231]
(B) NC/C(=C\F)Cn1ncn(-c2cccc(C#Cc3cnc4c(c3)NCCO4)n2)c1=O [Example 251]
Between A and B , which one has the lower reported IC50 value? Return value: the label identifying the chosen record. B
(B: 0.3 nM, A: 0.94 nM)

(I) NC/C(=C\F)Cn1ncn(-c2ncc(-c3ccc4c(c3)OCO4)cc2F)c1=O [Example 162, hydrochloride]
(II) NC/C(=C\F)Cn1ncn(-c2cccc(/C=C/c3ccc(C(F)(F)F)cc3)n2)c1=O [Example 238, Hydrochloride]
(III) Cc1ccc(-c2ccc3cn[nH]c3c2)nc1-n1cnn(C/C(=C/F)CN)c1=O [Example 214, hydrochloride]
Sort by IC50, descending. Reply format: the labels, ordered as requested. III, I, II

====

- Experimental System: recombinant human MAO-B (monoamine oxidase-B) (Homo sapiens, UniProt P27338)
- Construct: purchased Sigma-Aldrich
- Sequence (P27338 whole entry): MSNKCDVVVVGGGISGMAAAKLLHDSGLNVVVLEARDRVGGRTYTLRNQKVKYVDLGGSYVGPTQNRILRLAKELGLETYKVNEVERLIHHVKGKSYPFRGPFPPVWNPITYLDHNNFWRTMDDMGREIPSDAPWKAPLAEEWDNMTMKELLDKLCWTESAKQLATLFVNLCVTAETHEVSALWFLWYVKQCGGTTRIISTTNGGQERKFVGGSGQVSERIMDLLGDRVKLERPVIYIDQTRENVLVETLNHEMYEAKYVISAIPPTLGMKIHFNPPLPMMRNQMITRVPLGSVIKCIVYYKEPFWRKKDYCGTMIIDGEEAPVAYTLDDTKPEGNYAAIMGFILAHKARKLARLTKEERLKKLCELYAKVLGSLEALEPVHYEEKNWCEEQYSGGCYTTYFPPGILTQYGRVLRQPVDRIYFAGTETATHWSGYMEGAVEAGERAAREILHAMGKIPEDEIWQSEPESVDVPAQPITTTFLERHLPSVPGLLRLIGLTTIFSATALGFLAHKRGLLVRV
- Test: Activity on recombinant human MAO-B, Amplex Red method, 1 mM benzylamine substrate
- Format: biochemical
- Condition: 1 mM benzylamine, read-out: Inhibitory Activity (IC50, nM) MAO-B
Where a name gives a salt, the structure may show the parent alone.
Experimental Readout: IC50 (nM)

| Compound | IC50 / nM |
| --- | --- |
| NC/C(=C\F)Cn1ncn(-c2cccc(-c3cnc(O)c(C(F)(F)F)c3)c2)c1=O [Example 88, hydrochloride] | 9600 |
| CS(=O)(=O)c1ccc(-c2ccc(-n3cnn(C/C(=C\F)CN)c3=O)nc2)cc1 [Example 129, hydrochloride] | 10 |
| CC(=O)Nc1cc(-c2cccc(-n3cnn(C/C(=C/F)CN)c3=O)c2)ccn1 [Example 81, hydrochloride] | 7520 |

(A) NC/C(=C\F)Cn1ncn(-c2ccc(-c3cccc(-c4nnc[nH]4)c3)cc2F)c1=O
(B) Cc1cc(-c2ccc(-c3noc(C4CC4)n3)cc2)cnc1-n1cnn(C/C(=C/F)CN)c1=O [Example 141, hydrochloride]
(C) Cc1cc(-n2cnn(C/C(=C\F)CN)c2=O)ccc1Br
(D) COc1ncc(-c2cccc(-n3cnn(C/C(=C/F)CN)c3=O)c2)cc1C(F)(F)F [Example 87, hydrochloride]
In this exercise, place the 4 compounds in ascending sequence of their recorded IC50. Reply format: the labels, ordered as requested. C, D, A, B
